Values were extracted from patent US4269855A.

Molecular target: UniProtKB H0W3H1
Assay: Inhibition of isoprenalin-induced increase in contractile force, isolated guinea pig left auricle
Design: species or system guinea pig (Pirbright White)
Conditions: Bath, isoprenalin 3.2×10^-8 molar, probit analysis, read-out: ED50, inhibition of increase in contractile force induced by isoprenaline
pIC50: −log10 of the molar value. Structures can show the parent of a compound that is named as a salt.
# pIC50 listing for each entry below
readout.type: pIC50

compound: CC(=O)Nc1ccc(OCC(O)CNC(C)C)cc1 (centres unmarked) [Practolol Hydrochloride, reference compound]
readout.type: pIC50
result.number: 5.64
//
compound: CC(C)(C)NCC(O)COc1ccccc1NC(=O)c1ccco1 (centres unmarked) [Example 1]
readout.type: pIC50
result.number: 6.54

* * *

# IC50 listing for each entry below
Biological target: β-receptor (Cavia porcellus, UniProt H0W3H1)
Sequence (H0W3H1 1-470): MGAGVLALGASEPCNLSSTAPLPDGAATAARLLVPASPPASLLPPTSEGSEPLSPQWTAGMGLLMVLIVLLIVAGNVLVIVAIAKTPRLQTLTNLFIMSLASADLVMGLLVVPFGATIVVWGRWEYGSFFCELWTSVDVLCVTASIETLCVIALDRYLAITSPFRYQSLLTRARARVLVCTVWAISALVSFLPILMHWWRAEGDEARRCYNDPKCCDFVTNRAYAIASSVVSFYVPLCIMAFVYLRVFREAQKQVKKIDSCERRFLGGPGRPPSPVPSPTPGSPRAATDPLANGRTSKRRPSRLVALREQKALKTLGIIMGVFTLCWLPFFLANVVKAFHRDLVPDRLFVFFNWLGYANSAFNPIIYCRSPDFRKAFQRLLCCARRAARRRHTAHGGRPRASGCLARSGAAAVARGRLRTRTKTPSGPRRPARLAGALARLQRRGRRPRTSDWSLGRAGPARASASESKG
Assay: Inhibition of isoprenalin-induced increase in pulse rate, isolated guinea pig right auricle
Parameters: species or system guinea pig (Pirbright White)
Conditions: Bath, isoprenalin 5.8×10^-9 molar, probit analysis, read-out: ED50, inhibition of increase in pulse rate induced by isoprenalin
Where a name gives a salt, the structure may show the parent alone.

compound: CC(=O)Nc1ccc(OCC(O)CNC(C)C)cc1 (centres unmarked) [Practolol Hydrochloride, reference compound]
unit.label: µM
IC50: 0.71
--
compound: CC(C)(C)NCC(O)COc1ccccc1NC(=O)c1ccco1 (centres unmarked)
unit.label: µM
IC50: 0.098

* * *

Experiment: in vivo
Details: mouse, in vivo, iv
readout.type: LD50 at 168 h (mg/kg)

compound: CC(C)(C)NCC(O)COc1ccccc1NC(=O)c1ccco1 (stereo not shown) [Example 1]
unit.label: mg/kg
result.number: 55
